pKi for assorted binders
Molecular target: T1, human IL4Rα/Fc (R and D Systems 604-4R) (human, UniProt P24394 26-231, limits assumed, biotin labelled in the assay of Example 5)
T1 construct: bought protein; also called IL-4Rα/Fc (R&D systems Cat. No. 604-4R-050); not shown: Fc part of the bought fusion
T1 sequence (looked up): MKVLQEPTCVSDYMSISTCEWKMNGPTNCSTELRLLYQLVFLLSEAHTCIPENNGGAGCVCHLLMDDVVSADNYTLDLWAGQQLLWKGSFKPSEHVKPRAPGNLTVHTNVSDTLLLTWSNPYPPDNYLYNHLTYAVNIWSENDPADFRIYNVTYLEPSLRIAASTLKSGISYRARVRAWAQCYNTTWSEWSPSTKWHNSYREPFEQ
Experiment: HTRF receptor-ligand assay, purified scFv against biotinylated human IL4
pKi: −log10 of the molar value.
property: pKi

1. Antibody 17 scFv (scFv, V domains shown, tested as purified scFv) VH: QVQLVQSGAEVKKPGASVKVSCKASGYAFTSYYMHWARQAPGQGLEWMGIINPSGGSTSYAQKFQGRVTMTRDTSTSTVYMELSSLRSEDTAVYYCARGKWWWQHWGKGTLVTVSS VL: QSVLTQPPSVSAAPGQKVTISCSGGSSNIGNSYVSWYQQLPGTAPKLLIYDNNKRPSGIPDRFSGSKSGTSATLAITGLQTGDEADYYCGTWDTSPVDRPIFGTGTKLTVL
9.05
2. Antibody 34 scFv (scFv, V domains shown, tested as purified scFv) VH: QVQLVQSGAEVKKPGASVKVSCKASGYAFTSYYMHWARQAPGQGLEWMGIINPSGGSTSYAQKFQGRVSMTRDTSTSTVYMELSSLRSEDTAVYYCARGKYWMYDWGKGTLVTVSS VL: QSVLTQPPSVSAAPGQKVTISCSGGSSNIGNSYVSWYQQLPGTAPKLLIYDNNKRPSGIPDRFSGSKSGTSATLAITGLQTGDEADYFCGTWDTSTVWEWPFGTGTKLTVL
10.25
3. Antibody 2 scFv (scFv, V domains shown, tested as purified scFv) VH: QVQLVQSGAEVKKPGASVKVSCKASGYAFTSYYMHWARQAPGQGLEWMGIINPSGGSTSYAQKFQGRVTMTRDTSTSTVYMELSSLRSEDTAVYYCARGKWWLYNWGKGTLVTVSS VL: QSVLTQPPSVSAAPGQKVTISCSGGSSNIGNSYVSWYQQLPGTAPKLLIYDNNKRPSGIPDRFSGSKSGTSATLAITGLQTGDEADYYCGTWDTSQPPNPLFGTGTKLTVL
9.22

From: patent US20180057596A1
